binding signal reference
# Target desc: OsSMF1 (Oryza sativa, UniProt Q6ZLB0 1-436)
# Sequence: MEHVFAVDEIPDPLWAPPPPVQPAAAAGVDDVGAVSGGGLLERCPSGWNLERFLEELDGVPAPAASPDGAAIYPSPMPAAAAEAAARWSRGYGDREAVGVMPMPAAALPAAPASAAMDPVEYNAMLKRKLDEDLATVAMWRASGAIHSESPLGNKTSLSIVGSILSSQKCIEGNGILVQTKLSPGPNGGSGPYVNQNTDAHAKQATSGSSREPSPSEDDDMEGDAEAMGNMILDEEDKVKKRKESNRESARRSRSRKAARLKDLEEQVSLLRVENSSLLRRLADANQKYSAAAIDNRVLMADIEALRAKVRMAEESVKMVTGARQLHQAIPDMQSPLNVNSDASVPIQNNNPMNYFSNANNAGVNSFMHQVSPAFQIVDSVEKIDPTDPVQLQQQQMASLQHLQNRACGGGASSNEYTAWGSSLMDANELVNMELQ
# Procedure text: protein-binding microarray (RPBM); PBS, 2% BSA, 51.3 ng/ul salmon testes DNA, 50 uM zinc acetate, 200 nM TF, 25 C, 1 h; high values mean tight binding
# Experimental conditions: protein: recombinant; tags: N-terminal polyhistidine and DsRed monomer fusion (pET32a); chain copies: 2; label: CyDye5-dUTP incorporated in the synthesized complementary strand; 3' TTTTT single-stranded linker to array surface; dsDNA, one strand shown
The full ranking holds about 39,000 sequences; the median of “fluorescence intensity (a.u.)” is about 4,300, and the highest 2% start at about 39,000. This excerpt belongs to a sample that is enriched for the highest values.

Monomer sequence | binding signal
AGAGCCCACCAGCTGCACCGGCGTGGCATCGTCCACTTGGCGGAGTCACCTAGTGCAG | 5060 fluorescence intensity (a.u.)
ACCTGTGGACTTGCACGGTAACGTAGCACAATCTTCAAAGCGGAGTCACCTAGTGCAG | 3810 fluorescence intensity (a.u.)
TTGTCGCAGGTTGCTGACTGTTCCTCGAGGGAGTTCTCGGCGGAGTCACCTAGTGCAG | 6980 fluorescence intensity (a.u.)
TTTCTTTTCTTCTTTCCTTCTCCCCACGGAGGTGTACGTACGGAGTCACCTAGTGCAG | 3440 fluorescence intensity (a.u.)
TGTGTTCTCAATTTTGCGTGTTCTCAATGACACGTGAACACGGAGTCACCTAGTGCAG | 5630 fluorescence intensity (a.u.)
GGTGCCCTAATAAGTACGGTGGTTGAACATTACACAATTCCGGAGTCACCTAGTGCAG | 3770 fluorescence intensity (a.u.)
TATTTAAGTCAGTACTAAAGCACACATGTACAAATTTTACCGGAGTCACCTAGTGCAG | 4160 fluorescence intensity (a.u.)
TGAACCGGCCGGTTTTCATGTGAACCGTGAACCGTAATAACGGAGTCACCTAGTGCAG | 3240 fluorescence intensity (a.u.)
CATCCCCAAACTCCGCCGCCGCCGCCGTCACCGCCGCTCGCGGAGTCACCTAGTGCAG | 3700 fluorescence intensity (a.u.)
TCGATTCCAGCTGTGGCACCCATAGAGAAATGAGCCCGTCCGGAGTCACCTAGTGCAG | 56300 fluorescence intensity (a.u.)
GTAAAGCCTCGATATATCGATCGATTCCAGCTGTGGCACCCGGAGTCACCTAGTGCAG | 3620 fluorescence intensity (a.u.)
ATAGTTGTGATTAGATTGTGACGTACACAATGAGTATGCACGGAGTCACCTAGTGCAG | 5250 fluorescence intensity (a.u.)
ACCGGGTTCCACATGTCATACACACATTACGTCTTGGAGTCGGAGTCACCTAGTGCAG | 4450 fluorescence intensity (a.u.)
TGATGGCGGCTTTAGGTGACATGCAGCATTAAGTGGCATGCGGAGTCACCTAGTGCAG | 4460 fluorescence intensity (a.u.)
CTGTTATCTTTCAATAAACCAAGGGAATTTTAGTTTGTTCCGGAGTCACCTAGTGCAG | 33200 fluorescence intensity (a.u.)
TTACGATCACCGAAAAGTGGTAGCGTACGTGTTGAGTGTGCGGAGTCACCTAGTGCAG | 4140 fluorescence intensity (a.u.)
TCCGTTCTGTTTATGAATAACGGTCGAAAACGTAATAACCCGGAGTCACCTAGTGCAG | 46300 fluorescence intensity (a.u.)
CATAGATGGGCTCATCAGTAATGCTCCATATCAACACGACCGGAGTCACCTAGTGCAG | 35200 fluorescence intensity (a.u.)
ATCAGCTAAGGCCAATCGGTGGATTACACACATTGGGTTCCGGAGTCACCTAGTGCAG | 47600 fluorescence intensity (a.u.)
